From: ChEMBL document CHEMBL3576829

Reported IC50 values, Acetylcholinesterase (Electrophorus electricus, UniProt O42275).
Write the numeric value and follow it with the unit.

input: What value of measured IC50 is listed for CCN(CCCCOc1cccc(-c2cc(=O)c3c(OC)c(OC)c(OC)cc3o2)c1)Cc1ccccc1 ?
output: 8.3 µM

input: Same again, this time with CCN(CCCOc1ccc(-c2cc(=O)c3c(OC)c(OC)c(OC)cc3o2)cc1)Cc1ccccc1
output: 7.3 µM

input: Same again, this time with CCN(CCCOc1ccc(-c2cc(=O)c3c(O)c(OC)c(OC)cc3o2)cc1)Cc1ccccc1OC
output: 12 µM

input: Same again, this time with COc1cc2oc(-c3ccc(OCCCCN4CCN(Cc5ccccc5)CC4)cc3)cc(=O)c2c(OC)c1OC
output: 8.53 µM

input: Same again, this time with CCN(CCCCCCOc1cccc(-c2cc(=O)c3c(OC)c(OC)c(OC)cc3o2)c1)Cc1ccccc1
output: 12.2 µM

input: Same again, this time with COc1ccccc1CN(C)CCCCOc1cccc(-c2cc(=O)c3c(OC)c(OC)c(OC)cc3o2)c1
output: 12.2 µM

input: Same again, this time with COc1cc2oc(-c3ccc(OCCCN4CCN(Cc5ccccc5)CC4)cc3)cc(=O)c2c(OC)c1OC
output: 8.7 µM

---

- assayed-target: Acetylcholinesterase (Rattus norvegicus)
- Sequence (P37136 whole entry): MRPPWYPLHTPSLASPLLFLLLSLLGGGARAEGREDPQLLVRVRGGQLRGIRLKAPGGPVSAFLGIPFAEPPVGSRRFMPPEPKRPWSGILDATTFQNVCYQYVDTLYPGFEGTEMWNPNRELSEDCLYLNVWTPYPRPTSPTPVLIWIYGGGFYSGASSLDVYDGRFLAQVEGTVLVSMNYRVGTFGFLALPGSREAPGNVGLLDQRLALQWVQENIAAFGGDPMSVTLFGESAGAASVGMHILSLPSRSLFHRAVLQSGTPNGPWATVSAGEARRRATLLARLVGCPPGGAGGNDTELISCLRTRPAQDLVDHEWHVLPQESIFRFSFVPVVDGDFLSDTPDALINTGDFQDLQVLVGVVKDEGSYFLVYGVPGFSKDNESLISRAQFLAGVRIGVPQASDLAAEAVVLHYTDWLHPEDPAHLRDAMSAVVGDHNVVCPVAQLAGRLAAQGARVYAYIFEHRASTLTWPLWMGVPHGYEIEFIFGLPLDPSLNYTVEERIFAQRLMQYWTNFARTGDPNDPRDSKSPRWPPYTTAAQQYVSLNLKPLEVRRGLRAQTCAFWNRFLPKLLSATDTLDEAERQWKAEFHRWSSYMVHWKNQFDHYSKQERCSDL
pIC50: −log10 of the molar value.
Classification field: enter fulfilled for pIC50 values not below 6, not fulfilled for values below it.

input: Does the reported pIC50 for COc1cc2oc(-c3cccc(OCCCN4CCN(Cc5ccccc5)CC4)c3)cc(=O)c2c(OC)c1OC fall at or above the 6 mark?
output: not fulfilled

input: Same again, this time with CCN(CCCCCCOc1ccc(-c2cc(=O)c3c(OC)c(OC)c(OC)cc3o2)cc1)Cc1ccccc1
output: fulfilled

input: Same again, this time with COc1cc2oc(-c3cccc(OCCCCN4CCN(C)CC4)c3)cc(=O)c2c(OC)c1OC
output: fulfilled

input: Same again, this time with CCN(CCCOc1cccc(-c2cc(=O)c3c(O)c(OC)c(OC)cc3o2)c1)Cc1ccccc1OC
output: not fulfilled

input: Same again, this time with COc1ccccc1CN(C)CCOc1cccc(-c2cc(=O)c3c(OC)c(OC)c(OC)cc3o2)c1
output: not fulfilled

input: Same again, this time with COc1ccccc1CN(C)CCCCOc1ccc(-c2cc(=O)c3c(O)c(OC)c(OC)cc3o2)cc1
output: not fulfilled
